# Experimental system: JAK1 (Homo sapiens (Human), UniProt P23458)
# Sequence (P23458 875-1153): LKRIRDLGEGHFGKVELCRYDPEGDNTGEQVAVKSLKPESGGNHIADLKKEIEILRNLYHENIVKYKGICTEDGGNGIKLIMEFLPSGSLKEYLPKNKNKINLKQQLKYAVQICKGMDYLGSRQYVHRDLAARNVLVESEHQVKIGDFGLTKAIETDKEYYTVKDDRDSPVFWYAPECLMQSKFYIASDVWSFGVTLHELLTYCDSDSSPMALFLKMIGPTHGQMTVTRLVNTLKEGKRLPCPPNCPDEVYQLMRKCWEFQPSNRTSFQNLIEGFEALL
# Procedure details: Jak Biochemical HTRF Assay (JAK1)
# Experimental parameters: recombinant purified GST-tagged catalytic domain; HTRF; [ATP] 31.8 μM; [E] 1.405 nM
Measurement name: IC50

Examples from the recorded data:
Compound	IC50
CCC1(n2nc(Nc3ccc(C(=O)N4[C@H](C)COC[C@H]4C)c(C)c3)c3c(=O)[nH]ccc32)CCN(C(=O)OC(C)(C)C)CC1 (single isomer, unassigned) [Example 2-20]	0.79 nM
CCC1(n2nc(Nc3ccc(C(=O)N4CCOC[C@H]4C(C)C)c(C)c3)c3c(=O)[nH]ccc32)CCN(C(=O)OC(C)(C)C)CC1 [Example 3-8]	0.93 nM
CCC1(n2nc(Nc3ccc(C(=O)N4CCCSCC4)c(C)c3)c3c(=O)[nH]ccc32)CCN(C(=O)OC(C)(C)C)CC1 [Example 3-9]	0.79 nM

Q. Provide IC50 value for the following compound: CCC1(n2nc(Nc3ccc(C(=O)N4CCOCC(C)C4)c(C)c3)c3c(=O)[nH]ccc32)CCN(C(=O)OC(C)(C)C)CC1 (single isomer, unassigned) [Example 3-20]
A. 0.99 nM

Q. Provide IC50 value for the following compound: CCC1(n2nc(Nc3ccc(C4CCN(CC(F)(F)F)CC4)cc3)c3c(=O)[nH]ccc32)CCN(C(=O)OC(C)(C)C)CC1 [Example 2-3]
A. 10.2 nM

* * *

# Experimental system: JAK1 (Homo sapiens (Human), UniProt P23458)
# Procedure details: Jak Biochemical HTRF Assay (JAK1)
# Experimental parameters: recombinant purified GST-tagged catalytic domain; HTRF; [ATP] 31.8 μM; [E] 1.405 nM
Measurement name: IC50 (nM)
State just the number; it will be interpreted in nM.

Examples from the recorded data:
Compound	Experimental system	Measurement name	Readout unit	Recorded result
CCC1(n2nc(Nc3ccc(C(=O)N4CCSCC4)c(C(F)F)c3)c3c(=O)[nH]ccc32)CCN(C(=O)OC(C)(C)C)CC1	JAK1 (Homo sapiens (Human), UniProt P23458)	IC50	nM	1.73
CCC1(n2nc(Nc3ccc(C(=O)N4[C@@H](C)COC[C@@H]4C)c(C)c3)c3c(=O)[nH]ccc32)CCN(C(=O)OC(C)(C)C)CC1 (single isomer, unassigned)	JAK1 (Homo sapiens (Human), UniProt P23458)	IC50	nM	0.85
CCC1(n2nc(Nc3ccc(C(=O)N4CCO[C@H](C)C4)c(C)c3)c3c(=O)[nH]ccc32)CCN(C(=O)OC(C)(C)C)CC1	JAK1 (Homo sapiens (Human), UniProt P23458)	IC50	nM	0.72

Shift focus to the following entry.
Q. Provide IC50 value for the following compound: `CCC1(n2nc(Nc3ccc(C4CCNCC4)cc3)c3c(=O)[nH]ccc32)CCN(C(=O)OC(C)(C)C)CC1`
A. 1.13

* * *

Measured pIC50 accompanies every entry in the list below.
# Experimental system: JAK2 (Homo sapiens (Human), UniProt O60674)
# Sequence (O60674 849-1124): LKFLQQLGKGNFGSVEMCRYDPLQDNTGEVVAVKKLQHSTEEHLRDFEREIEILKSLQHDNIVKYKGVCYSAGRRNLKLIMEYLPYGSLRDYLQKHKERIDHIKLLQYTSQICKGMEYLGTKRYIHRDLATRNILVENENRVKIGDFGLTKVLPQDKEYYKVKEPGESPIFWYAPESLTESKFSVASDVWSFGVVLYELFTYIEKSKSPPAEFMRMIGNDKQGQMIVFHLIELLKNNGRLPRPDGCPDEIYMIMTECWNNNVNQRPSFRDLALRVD
# Procedure details: Jak Biochemical HTRF Assay (JAK2)
# Experimental parameters: recombinant purified GST-tagged catalytic domain, [ATP] 8.5 μM, [E] 0.052 nM
Formally, pIC50 is defined as -log10 of the concentration c, with c in mol/L.

Examples from the recorded data:
Test smiles	pIC50
CCC1(n2nc(Nc3ccc4c(c3)CN(C3CCOCC3)S4(=O)=O)c3c(=O)[nH]ccc32)CCN(C(=O)OC(C)(C)C)CC1	9.22
CCC1(n2nc(Nc3ccc(C(=O)N4C5CCC4COC5)c(C)c3)c3c(=O)[nH]ccc32)CCN(C(=O)OC(C)(C)C)CC1	9.27
CCC1(n2nc(Nc3ccc(C(=O)N4CCOC[C@@H]4C)c(C)c3)c3c(=O)[nH]ccc32)CCN(C(=O)OC(C)(C)C)CC1	9.29
CCC1(n2nc(Nc3ccc(C(=O)N4C[C@H](C)O[C@@H](C)C4)c(C)c3)c3c(=O)[nH]ccc32)CCN(C(=O)OC(C)(C)C)CC1	9.20
CCC1(n2nc(Nc3ccc(C(=O)N4CCCC4)c(C)c3)c3c(=O)[nH]ccc32)CCN(C(=O)OC(C)(C)C)CC1	8.97

Q. Provide pIC50 value for the following compound: `CCC1(n2nc(Nc3ccc(C4CCN(C)CC4)cc3)c3c(=O)[nH]ccc32)CCN(C(=O)OC(C)(C)C)CC1`
A. 9.25

Q. Provide pIC50 value for the following compound: `CCC1(n2nc(Nc3ccc(C(=O)N4CCOCC4(C)C)c(C)c3)c3c(=O)[nH]ccc32)CCN(C(=O)OC(C)(C)C)CC1`
A. 8.92

FYI, the data here is from patent US10072025B2.
